# ASSAY NOTES: Tmax in Sprague-Dawley rat at 50 mg/kg, po measured upto 1440 mins by LC-MS/MS analysis
# Format: ADME, organism-based
# CONDITION: in vivo
OBSERVABLE: Tmax (min)
Your answer is read as min, so omit the unit and give the number.

Task: # lookup: Tmax of CCn1c(=O)[nH]c(=O)c2c1nc(Cc1cn3cc(C)sc3n1)n2CC1COC1
Output: 49.8

---

# ASSAY NOTES: Half life in Sprague-Dawley rat at 10 mg/kg, iv measured upto 1440 mins by LC-MS/MS analysis
# Type: ADME, organism-based
# CONDITION: in vivo
OBSERVABLE: half-life (h)
Your answer is read as h, so omit the unit and give the number.

Task: # lookup: half-life of CCn1c(=O)[nH]c(=O)c2c1nc(Cc1cn3cc(C)sc3n1)n2CC1COC1
Output: 3.39

---

# ASSAY NOTES: Solubility in simulated gastric fluid by HPLC-UV analysis
# Assay type: physicochemical
OBSERVABLE: solubility (µM)
Your answer is read as µM, so omit the unit and give the number.

Task: # lookup: solubility of CCn1c(=O)[nH]c(=O)c2c1nc(Cc1cn3cc(C)sc3n1)n2Cc1ccccc1
Output: 177

Task: # lookup: solubility of CCn1c(=O)[nH]c(=O)c2c1nc(Cc1cn3c(n1)CCCC3)n2Cc1ccccc1
Output: 188

Task: # lookup: solubility of CCn1c(=O)[nH]c(=O)c2c1nc(Cc1cn3cc(Cl)sc3n1)n2Cc1ccccc1
Output: 198

---

# ASSAY NOTES: MRT (0 to infinitive) in Sprague-Dawley rat at 10 mg/kg, iv measured upto 1440 mins by LC-MS/MS analysis
# Assay type: ADME, organism-based
# CONDITION: in vivo
OBSERVABLE: MRT inf
Field: value (include unit after the number)

Task: # lookup: MRT inf of CCn1c(=O)[nH]c(=O)c2c1nc(Cc1cn3cc(C)sc3n1)n2CC1COC1
Output: 42 min

---

# ASSAY NOTES: Drug uptake in CD-1 (ICR) mouse brain at 50 mg/kg measured 0.5 hrs by LC-MS/MS analysis
# Format: ADME, organism-based
# CONDITION: read-out: Drug uptake
OBSERVABLE: concentration at 0.5 h (ng/g)
Your answer is read as ng/g, so omit the unit and give the number.

Task: # lookup: concentration at 0.5 h of CCn1c(=O)[nH]c(=O)c2c1nc(Cc1cn3cc(C)sc3n1)n2CC1COC1
Output: 53

---

# EXPERIMENTAL TARGET: Tryptophan 5-hydroxylase 1 (Homo sapiens)
# Sequence (P17752 whole entry): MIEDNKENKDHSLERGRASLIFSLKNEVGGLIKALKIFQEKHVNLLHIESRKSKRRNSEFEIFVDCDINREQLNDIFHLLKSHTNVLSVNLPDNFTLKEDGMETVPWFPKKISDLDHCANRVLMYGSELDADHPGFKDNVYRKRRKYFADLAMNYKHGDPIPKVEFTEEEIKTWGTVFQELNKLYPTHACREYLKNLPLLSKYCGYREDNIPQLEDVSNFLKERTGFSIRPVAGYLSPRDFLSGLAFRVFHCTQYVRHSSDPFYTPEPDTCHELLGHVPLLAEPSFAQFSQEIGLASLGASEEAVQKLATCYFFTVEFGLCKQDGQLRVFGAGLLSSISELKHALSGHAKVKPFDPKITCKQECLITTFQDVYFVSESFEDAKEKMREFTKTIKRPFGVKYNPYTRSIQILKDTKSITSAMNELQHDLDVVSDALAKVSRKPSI
# ASSAY NOTES: Inhibition of recombinant MBP-tagged full length human THP1 using L-Trp as substrate assessed as formation of 5-HTP by measuring fluorescent property
Exercise: state measured pIC50 for each of the molecules provided.
Worth noting: pIC50 values are minus log10 of concentrations stated in mol/L.

Task: # lookup: pIC50 of CCn1c(=O)[nH]c(=O)c2c1nc(Cc1cn3c(n1)CCCC3)n2Cc1cccc(C(=O)OC)c1
Output: 6.61

Task: # lookup: pIC50 of CCn1c(=O)[nH]c(=O)c2c1nc(Cc1cn3cc(C)sc3n1)n2CCCOC
Output: 6.46

Task: # lookup: pIC50 of CCn1c(=O)[nH]c(=O)c2c1nc(Cc1cn3c(n1)CCCC3)n2CC1CCC1
Output: 6.40

Task: # lookup: pIC50 of CCn1c(=O)[nH]c(=O)c2c1nc(Cc1cn3cc(C)sc3n1)n2CC1CCCCC1
Output: 6.40

---

# ASSAY NOTES: AUC (0 to infinitive) in Sprague-Dawley rat at 20 mg/kg, po measured upto 1440 mins by LC-MS/MS analysis
# Type: ADME, organism-based
# Parameters: dose 20 mg/kg, time < 1440 min, route po
# CONDITION: in vivo
OBSERVABLE: AUC(0-inf)
Field: value (include unit after the number)

Task: # lookup: AUC(0-inf) of CCn1c(=O)[nH]c(=O)c2c1nc(Cc1cn3cc(C)sc3n1)n2CC1COC1
Output: 3320 ng·h/mL

---

# ASSAY NOTES: Cmax in Sprague-Dawley rat at 50 mg/kg, po measured upto 1440 mins by LC-MS/MS analysis
# Assay type: ADME, organism-based
# Design: time < 1440 min, dose 50 mg/kg, route po
# CONDITION: in vivo
OBSERVABLE: Cmax (ng/mL)
Your answer is read as ng/mL, so omit the unit and give the number.

Task: # lookup: Cmax of CCn1c(=O)[nH]c(=O)c2c1nc(Cc1cn3cc(C)sc3n1)n2CC1COC1
Output: 4100

---

# ASSAY NOTES: MRT (0 to infinitive) in Sprague-Dawley rat at 20 mg/kg, po measured upto 1440 mins by LC-MS/MS analysis
# Type: ADME, organism-based
# CONDITION: in vivo
OBSERVABLE: MRT inf (h)
Your answer is read as h, so omit the unit and give the number.

Task: # lookup: MRT inf of CCn1c(=O)[nH]c(=O)c2c1nc(Cc1cn3cc(C)sc3n1)n2CC1COC1
Output: 3.14

---

# ASSAY NOTES: Volume of distribution at steady state in Sprague-Dawley rat at 10 mg/kg, iv measured upto 1440 mins by LC-MS/MS analysis
# Format: ADME, organism-based
# CONDITION: in vivo, read-out: Vdss
OBSERVABLE: Vd (L/kg)
Your answer is read as L/kg, so omit the unit and give the number.

Task: # lookup: Vd of CCn1c(=O)[nH]c(=O)c2c1nc(Cc1cn3cc(C)sc3n1)n2CC1COC1
Output: 1.4

---

Exercise: state measured CLint scaled for each of the compounds provided.
# ASSAY NOTES: Metabolic stability in human hepatocytes assessed as intrinsic clearance
# Type: ADME, cell-based, Hepatocyte
# CONDITION: read-out: CLH

Task: # lookup: CLint scaled of CCn1c(=O)[nH]c(=O)c2c1nc(Cc1cn3cc(C)sc3n1)n2CC1CC1
Output: 19 mL/min/kg

Task: # lookup: CLint scaled of CCn1c(=O)[nH]c(=O)c2c1nc(Cc1cn3cc(Cl)sc3n1)n2Cc1ccccc1
Output: < 115 mL/min/kg

Task: # lookup: CLint scaled of CCn1c(=O)[nH]c(=O)c2c1nc(Cc1cn3cc(Cl)sc3n1)n2CC1COC1
Output: < 8.6 mL/min/kg

Task: # lookup: CLint scaled of CCn1c(=O)[nH]c(=O)c2c1nc(Cc1cn3cc(Cl)sc3n1)n2Cc1ccc(-c2ccn(C)n2)cc1
Output: 174 mL/min/kg

Task: # lookup: CLint scaled of CCn1c(=O)[nH]c(=O)c2c1nc(Cc1cn3ccccc3n1)n2Cc1ccc(-c2ccn(C)n2)cc1
Output: < 115 mL/min/kg

Task: # lookup: CLint scaled of CCn1c(=O)[nH]c(=O)c2c1nc(Cc1cn3c(n1)CCCC3)n2Cc1ccccc1
Output: < 115 mL/min/kg

Task: # lookup: CLint scaled of CCn1c(=O)[nH]c(=O)c2c1nc(Cc1cn3cc(C)sc3n1)n2Cc1ccccc1
Output: 315 mL/min/kg

Task: # lookup: CLint scaled of CCn1c(=O)[nH]c(=O)c2c1nc(Cc1cn3cc(C)sc3n1)n2CC1COC1
Output: < 8.6 mL/min/kg

---

# ASSAY NOTES: Plasma concentration in CD-1 (ICR) mouse at 50 mg/kg measured 2 hrs by LC-MS/MS analysis
# Type: ADME, organism-based
OBSERVABLE: concentration at 2 h (ng/mL)
Your answer is read as ng/mL, so omit the unit and give the number.

Task: # lookup: concentration at 2 h of CCn1c(=O)[nH]c(=O)c2c1nc(Cc1cn3cc(C)sc3n1)n2CC1COC1
Output: 1610

---

# ASSAY NOTES: Clearance in Sprague-Dawley rat at 10 mg/kg, iv measured upto 1440 mins by LC-MS/MS analysis
# Type: ADME, organism-based
# CONDITION: in vivo
OBSERVABLE: clearance (mL/min/kg)
Your answer is read as mL/min/kg, so omit the unit and give the number.

Task: # lookup: clearance of CCn1c(=O)[nH]c(=O)c2c1nc(Cc1cn3cc(C)sc3n1)n2CC1COC1
Output: 33.2
